Consider the following compounds; for each one, report its Population Fragmented Nuclei (%).
# System: Fibroblast
# MEASUREMENT PROTOCOL: Multiplex assay against human fibroblast
# Format: toxicity, cell-based
# ASSAY SETUP: 48 h, 1 µM, compound concentration 1 uM, replicate 1
One number for each entry, in %.

# annotated cases, reported Population Fragmented Nuclei (%) shown
N#Cc1c(Oc2cccc(OS(=O)(=O)CCCC(F)(F)F)c2)cccc1C(F)(F)F ... 18
Cc1cnc(-c2cc(N3CCN(C(=O)CCS(C)(=O)=O)CC3)ncc2Cl)c(C)c1 ... 19
Cc1cccc(NC(=O)CN2CCC(c3ccccn3)CC2)c1.Cl.Cl ... 25
CN1CCN(c2cc(-c3ccccc3)nc(N)n2)CC1 ... 22

-- ask // query Population Fragmented Nuclei (%) value for entry CCCCC(=O)N(Cc1ccc(-c2ccccc2-c2nnn[nH]2)cc1)[C@H](C(=O)O)C(C)C
-- reply 18

// provenance: ChEMBL document CHEMBL5058577
